// reported Ki for each item listed
molecular target: somatostatin receptors (Rattus norvegicus); construct: endogenous in cells; host or cells: rat AR 42J pancreatic acinar tumor cell membranes; assay: Somatostatin membrane receptor assay, 125I-[Tyr11]SS-14, AR 42J cell membranes; assay type: binding; details: Cheng method; table prints no unit (b360 gives nM for a Table 4 value); read-out: affinity, 125I-[Tyr11]SS-14, AR 42J Cell Membranes (somatostatin receptors)
Sequence (P30680 whole entry): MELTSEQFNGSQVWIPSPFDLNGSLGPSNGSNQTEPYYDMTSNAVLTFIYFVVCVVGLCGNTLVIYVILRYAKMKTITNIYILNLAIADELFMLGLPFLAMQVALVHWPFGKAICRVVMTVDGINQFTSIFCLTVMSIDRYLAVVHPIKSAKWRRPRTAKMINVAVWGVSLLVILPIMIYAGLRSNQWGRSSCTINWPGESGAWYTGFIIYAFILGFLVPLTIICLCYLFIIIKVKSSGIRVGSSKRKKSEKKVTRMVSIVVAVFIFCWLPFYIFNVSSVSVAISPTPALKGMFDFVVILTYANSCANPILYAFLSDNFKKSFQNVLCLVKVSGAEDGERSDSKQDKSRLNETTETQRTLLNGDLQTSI
Where a SMILES comes first, the peptide text is derived from it. Bridges are numbered along the chain shown (N, C = ends). [ ]: non-standard residue; d: D form. 2Nal = N[C@@H](Cc1ccc2ccccc2c1)C(=O)O; d2Nal = N[C@H](Cc1ccc2ccccc2c1)C(=O)O
recorded_endpoint: Ki (nM)

compound	recorded_endpoint	censoring_qualifier	numeric_readout
CC(C)[C@@H]1NC(=O)[C@H](CCCCN)NC(=O)[C@@H](Cc2ccc3ccccc3c2)NC(=O)[C@H](Cc2ccc(O)cc2)NC(=O)[C@@H](NC(=O)[C@H](N)Cc2ccc3ccccc3c2)CSSC[C@@H](C(=O)N[C@@H](Cc2ccc3ccccc3c2)C(N)=O)NC1=O [Analog #17] (H-[d2Nal]CY[d2Nal]KVC[2Nal]-NH2; disulfide 2-7)	Ki	=	570
C[C@@H](O)[C@H](NC(=O)[C@@H]1CSSC[C@H](NC(=O)[C@H](N)Cc2ccc3ccccc3c2)C(=O)N[C@@H](Cc2ccc(O)cc2)C(=O)N[C@H](Cc2c[nH]c3ccccc23)C(=O)N[C@@H](CCCCN)C(=O)N[C@@H](Cc2ccc3ccccc3c2)C(=O)N1)C(N)=O	Ki	=	0.5
CSCC[C@H](NC(=O)[C@H](Cc1ccccc1)NC(=O)[C@H](Cc1c[nH]cn1)NC(=O)CNC(=O)[C@@H](NC(=O)[C@H](C)NC(=O)[C@H](Cc1c[nH]c2ccccc12)NC(=O)[C@H](CC(C)C)NC(=O)[C@H](CC(N)=O)NC(=O)CN)[C@@H](C)O)C(N)=O [NMB, neuromedin B, reference compound]	Ki	>	10000
CC(C)[C@@H]1NC(=O)[C@H](CCCCN)NC(=O)[C@@H](Cc2c[nH]c3ccccc23)NC(=O)[C@H](Cc2ccc(O)cc2)NC(=O)[C@@H](NC(=O)[C@H](N)Cc2ccc3ccccc3c2)CSSC[C@@H](C(=O)N[C@@H](Cc2ccc3ccccc3c2)C(N)=O)NC1=O [Analog #1] (H-[d2Nal]CY[dW]KVC[2Nal]-NH2; disulfide 2-7)	Ki	=	0.8
CC(C)[C@@H]1NC(=O)[C@H](CCCCN)NC(=O)[C@@H](Cc2c[nH]c3ccccc23)NC(=O)[C@H](Cc2ccc(O)cc2)NC(=O)[C@@H](NC(=O)[C@H](N)Cc2ccc3ccccc3c2)CSSC[C@@H](C(=O)N[C@H](Cc2ccc3ccccc3c2)C(N)=O)NC1=O [Analog #8] (H-[d2Nal]CY[dW]KVC[d2Nal]-NH2; disulfide 2-7)	Ki	=	3.9
C[C@@H](O)[C@@H]1NC(=O)[C@H](CCCCN)NC(=O)[C@@H](Cc2c[nH]c3ccccc23)NC(=O)[C@H](Cc2ccc(O)cc2)NC(=O)[C@@H](NC(=O)[C@H](N)Cc2ccccc2)CSSC[C@@H](C(=O)N[C@@H](Cc2ccc3ccccc3c2)C(N)=O)NC1=O [Analog #7] (H-[dF]CY[dW]KTC[2Nal]-NH2; disulfide 2-7)	Ki	=	0.86
